B1: glmS ribozyme (parent)
chain: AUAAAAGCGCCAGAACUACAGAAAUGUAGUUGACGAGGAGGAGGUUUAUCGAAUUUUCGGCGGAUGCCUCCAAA

variants of: B1; assay: self-cleavage kobs at 10000 uM GlcN6P; higher = faster cleavage; RNA array; conditions: with glucosamine-6-phosphate
Fewer inactive variants are shown than the library holds.
Examples of variants with documented self-cleavage kobs at 10000 uM GlcN6P follow.

Examples with answers:
residue_change="A6C G37C" assay_result="< 1e-05 s⁻¹"
residue_change="C8A G32C" assay_result="< 1e-05 s⁻¹"
residue_change="C34G U45A" assay_result="< 1e-05 s⁻¹"
residue_change="C16G G63A" assay_result="< 1e-05 s⁻¹"
residue_change="G41U C67G C68A" assay_result="0.000314 s⁻¹"

Inquiry: For the variant A39G G43U G44U C67G , give its measured self-cleavage kobs at 10000 uM GlcN6P value.
Reply text: 5.34e-05 s⁻¹

Inquiry: Identify self-cleavage kobs at 10000 uM GlcN6P associated with the variant C34U U65C
Reply text: < 1e-05 s⁻¹

Inquiry: Dear colleague, please send me the reported self-cleavage kobs at 10000 uM GlcN6P for C10A A36U A39U when you can.
Reply text: < 1e-05 s⁻¹

Inquiry: Identify measured self-cleavage kobs at 10000 uM GlcN6P associated with C58U C70U
Reply text: 8.61e-05 s⁻¹

Inquiry: Retrieve self-cleavage kobs at 10000 uM GlcN6P measured for C34G C58U and print it.
Reply text: < 1e-05 s⁻¹

Inquiry: Determine its reported self-cleavage kobs at 10000 uM GlcN6P: G38U A52U U57G A64G
Reply text: < 1e-05 s⁻¹

Inquiry: Indicate the recorded self-cleavage kobs at 10000 uM GlcN6P value for this variant: A6C G43A G59C C70U
Reply text: < 1e-05 s⁻¹
